Listed below: Percent Effect values for each entry.
Molecular target: Tyrosyl-tRNA synthetase, putative (Trypanosoma cruzi (strain CL Brener))
Sequence (whole entry): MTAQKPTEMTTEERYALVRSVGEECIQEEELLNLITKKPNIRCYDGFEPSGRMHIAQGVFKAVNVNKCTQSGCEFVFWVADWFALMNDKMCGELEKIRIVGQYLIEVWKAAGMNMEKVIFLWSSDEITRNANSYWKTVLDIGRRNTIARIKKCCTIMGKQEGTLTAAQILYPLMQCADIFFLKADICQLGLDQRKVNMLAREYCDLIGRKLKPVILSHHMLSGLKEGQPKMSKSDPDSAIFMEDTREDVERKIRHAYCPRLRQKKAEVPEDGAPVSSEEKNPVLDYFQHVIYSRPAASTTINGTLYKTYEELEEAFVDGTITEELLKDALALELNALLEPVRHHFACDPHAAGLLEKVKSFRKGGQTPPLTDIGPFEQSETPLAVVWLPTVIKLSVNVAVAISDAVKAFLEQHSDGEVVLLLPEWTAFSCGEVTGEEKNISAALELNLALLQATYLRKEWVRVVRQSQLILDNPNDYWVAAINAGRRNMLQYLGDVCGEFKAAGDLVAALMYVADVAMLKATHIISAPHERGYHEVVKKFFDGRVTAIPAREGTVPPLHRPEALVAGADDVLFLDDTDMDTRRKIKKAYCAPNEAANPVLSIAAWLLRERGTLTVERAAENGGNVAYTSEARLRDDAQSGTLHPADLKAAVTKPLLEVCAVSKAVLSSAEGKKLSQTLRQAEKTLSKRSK
Experiment: Trypanosoma cruzi tyrosyl tRNA synthetase (TcYRS) SOP
Type: functional
Parameters: scale not given: direction of the effect not stated beside the values
Conditions: 30 µM
Endpoint label: Percent Effect (%)

[[record]]
compound = "Cc1cc(C(=O)N2C[C@@H](C(=O)O)[C@H](c3ccccc3C)C2)c(C)o1"
endpoint_label = "Percent Effect"
uom = "%"
endpoint_value = 3.7

[[record]]
compound = "CN(C)C(=O)CNC(=O)CCn1ncc2c(Cl)cccc21"
endpoint_label = "Percent Effect"
uom = "%"
endpoint_value = 7.69

[[record]]
compound = "Cc1nn(C)c(N2CCOCC2)c1CNCc1ccnc(N(C)C)c1"
endpoint_label = "Percent Effect"
uom = "%"
endpoint_value = 14.1

[[record]]
compound = "CCn1cc(N2Cc3nc(N4CCN(C)CC4)ncc3C2=O)cn1"
endpoint_label = "Percent Effect"
uom = "%"
endpoint_value = 12.8

[[record]]
compound = "COc1cccc2cc(CNC(C)(C)C(=O)N3CCC(O)CC3)oc12"
endpoint_label = "Percent Effect"
uom = "%"
endpoint_value = 3.8

[[record]]
compound = "Cc1n[nH]cc1CNc1ccc2c(c1)CN(C(=O)OC(C)(C)C)CC2"
endpoint_label = "Percent Effect"
uom = "%"
endpoint_value = 3.7

[[record]]
compound = "CCOCCn1nnc(C2(NC(=O)c3ccccc3)CCCC2)n1"
endpoint_label = "Percent Effect"
uom = "%"
endpoint_value = 11.1

[[record]]
compound = "Fc1ccc(CN2CCC(c3n[nH]c4nccnc34)CC2)cc1F"
endpoint_label = "Percent Effect"
uom = "%"
endpoint_value = 6.49

[[record]]
compound = "CC(C)=CCN1CCOC(Cn2nc(C)cc2C)C1 (stereo unspecified)"
endpoint_label = "Percent Effect"
uom = "%"
endpoint_value = 17.1

[[record]]
compound = "Cc1cccc(-c2nc(C)nn2CC(=O)NC2CCCC2)c1"
endpoint_label = "Percent Effect"
uom = "%"
endpoint_value = 26.8

[[record]]
compound = "Cc1oncc1C(=O)N1CCC2(CC1)CC(c1ccccc1)C(=O)N2C (stereo unspecified)"
endpoint_label = "Percent Effect"
uom = "%"
endpoint_value = -62.5

[[record]]
compound = "Cc1cc(C)n(CC2CCCCN2CC(=O)Nc2nncs2)n1 (stereo unspecified)"
endpoint_label = "Percent Effect"
uom = "%"
endpoint_value = 16.1

[[record]]
compound = "CCc1nc(C2CCCN2C(=O)CCNS(C)(=O)=O)no1 (stereo unspecified)"
endpoint_label = "Percent Effect"
uom = "%"
endpoint_value = 23.2

[[record]]
compound = "COc1ccc(-c2nnc(SC(C)C(=O)NCC(C)C)[nH]2)c(OC)c1 (stereo unspecified)"
endpoint_label = "Percent Effect"
uom = "%"
endpoint_value = 18.2

[[record]]
compound = "CCn1ccnc1CN1CCN(C(C)C(=O)NC2CCCCC2)CC1 (stereo unspecified)"
endpoint_label = "Percent Effect"
uom = "%"
endpoint_value = -4.88

[[record]]
compound = "O=C(CN1CCCCC1Cn1cncn1)NCc1ccccn1 (stereo unspecified)"
endpoint_label = "Percent Effect"
uom = "%"
endpoint_value = 3.8

[[record]]
compound = "Cc1c(C(=O)N2CCCC2c2cnn(C)c2)nnn1-c1ccccc1 (stereo unspecified)"
endpoint_label = "Percent Effect"
uom = "%"
endpoint_value = 13.4

[[record]]
compound = "O=C(NCc1ccco1)[C@@H]1CCO[C@@H]2CCN(c3ccncn3)C[C@H]21"
endpoint_label = "Percent Effect"
uom = "%"
endpoint_value = -25

[[record]]
compound = "COc1cccc2c1OCC(CNC(=O)CCCN1CCOCC1)C2 (stereo unspecified)"
endpoint_label = "Percent Effect"
uom = "%"
endpoint_value = 18.5

[[record]]
compound = "O=C(NC1CC1)c1ccc2ccc(N3CCN(CC4CC4)CC3)n2c1"
endpoint_label = "Percent Effect"
uom = "%"
endpoint_value = 22.5

[[record]]
compound = "COc1cccc(CN2C[C@@H]3COC[C@]3(COCc3ccncc3)C2)c1"
endpoint_label = "Percent Effect"
uom = "%"
endpoint_value = 10.3

[[record]]
compound = "Cc1ccc(-c2nc(CN3CCc4nn(C)c(=O)cc4C3)no2)cc1"
endpoint_label = "Percent Effect"
uom = "%"
endpoint_value = -1.24

[[record]]
compound = "Cc1noc([C@@]23CCO[C@@H]2CCN(C(=O)c2sccc2C)C3)n1"
endpoint_label = "Percent Effect"
uom = "%"
endpoint_value = 0

[[record]]
compound = "COc1c(CNC2CCc3c(Cl)cccc32)c(C)nn1C (stereo unspecified)"
endpoint_label = "Percent Effect"
uom = "%"
endpoint_value = 16.1

[[record]]
compound = "Cc1ccsc1C(=O)N1CC(C(=O)NCC2CC2)C2(CCOCC2)C1 (stereo unspecified)"
endpoint_label = "Percent Effect"
uom = "%"
endpoint_value = -3.85

[[record]]
compound = "Cc1ccc2oc(CNC(C)c3nnc4n3CCCC4)cc2c1 (stereo unspecified)"
endpoint_label = "Percent Effect"
uom = "%"
endpoint_value = 15.8

[[record]]
compound = "O=C(CCN1CCCC1C1CCCCC1)N1CCc2sccc2C1 (stereo unspecified)"
endpoint_label = "Percent Effect"
uom = "%"
endpoint_value = 11.1

[[record]]
compound = "O=C(c1cccnc1-n1cncn1)N1CCN(CC2CC2)CC1"
endpoint_label = "Percent Effect"
uom = "%"
endpoint_value = 9.76

[[record]]
compound = "Cc1cc(C)c(CNC(=O)NCCOc2ccc3c(c2)CCC3)c(=O)[nH]1"
endpoint_label = "Percent Effect"
uom = "%"
endpoint_value = 0

[[record]]
compound = "CCNC(c1cccnc1)c1ccc(F)c(F)c1 (stereo unspecified)"
endpoint_label = "Percent Effect"
uom = "%"
endpoint_value = -5.06

[[record]]
compound = "Cn1ccnc1CN1CCN(CC(O)c2ccc(F)c(F)c2)CC1 (stereo unspecified)"
endpoint_label = "Percent Effect"
uom = "%"
endpoint_value = -2.44


====

Target: Proteasome subunit beta (Trypanosoma cruzi)
Test: Trypanosoma cruzi proteasome chymotrypsin-like activity (TcProtChymo) assay. Also: in the data most compounds retested in dose-response had high values.
Format: functional
Parameters: scale not given: direction of the effect not stated beside the values
Conditions: 9.37 µM
Decision: Percent Effect >= 6% yields yes, all other cases yield no.

[[record]]
compound = "Cc1cc(NC(=O)CN2CCN(c3nccs3)C(C)C2)n(C)n1 (stereo unspecified)"
answer_label = "no"

[[record]]
compound = "Cc1cc(S(=O)(=O)NCc2cccc(C(=O)N3CCCC3)c2)c(C)s1"
answer_label = "yes"

[[record]]
compound = "Cc1nc(C)n(CC2CN(c3ncccn3)Cc3nccn3C2)n1 (stereo unspecified)"
answer_label = "yes"

[[record]]
compound = "O=C(O)C1(Cc2ccccc2Cl)CCN(c2ncccc2F)CC1"
answer_label = "yes"

[[record]]
compound = "Cn1ccnc1CN1CCC2(CC(=O)N(c3cccc(F)c3)C2)C1 (stereo unspecified)"
answer_label = "yes"


====

Molecular target: Protein translocase subunit SecA (Escherichia coli (strain K12))
Experiment: Assay to Identify E. coli SecA ATPase Inhibitors
Format: functional
Design: scale not given: direction of the effect not stated beside the values
Details: 30 µM
Potency and affinity values are given separately.
Listed below: Percent Effect values for each entry.
Endpoint label: Percent Effect

[[record]]
compound = "COc1ccc(CN(C)[C@@H]2CN(C(=O)c3cccs3)C[C@H]2O)cc1"
measured_on = "Protein translocase subunit SecA (Escherichia coli (strain K12))"
endpoint_label = "Percent Effect"
endpoint_value = "-3.27%"

[[record]]
compound = "Cc1cnn(C2CCCN(C(=O)CCc3nccs3)C2)c1 (stereo not given)"
measured_on = "Protein translocase subunit SecA (Escherichia coli (strain K12))"
endpoint_label = "Percent Effect"
endpoint_value = "-2.71%"

[[record]]
compound = "Cc1cc(C(=O)N2CCc3nnc(N)cc3C2)c(C)n1-c1cccnc1"
measured_on = "Protein translocase subunit SecA (Escherichia coli (strain K12))"
endpoint_label = "Percent Effect"
endpoint_value = "-9.46%"

[[record]]
compound = "CCC(=O)N1CCC(c2nnc(Cn3cccn3)n2C2CC2)CC1"
measured_on = "Protein translocase subunit SecA (Escherichia coli (strain K12))"
endpoint_label = "Percent Effect"
endpoint_value = "-5.96%"

[[record]]
compound = "COCCO[C@@H]1C[C@H]2CN(C(=O)c3cnccn3)CCN2C1"
measured_on = "Protein translocase subunit SecA (Escherichia coli (strain K12))"
endpoint_label = "Percent Effect"
endpoint_value = "-2.84%"

[[record]]
compound = "O=c1ccc(-c2cccs2)nn1CN1CCCCCC1"
measured_on = "Protein translocase subunit SecA (Escherichia coli (strain K12))"
endpoint_label = "Percent Effect"
endpoint_value = "-4.24%"

[[record]]
compound = "Cc1nc(Cn2nc(C3CCNCC3)n(Cc3ccccc3)c2=O)no1"
measured_on = "Protein translocase subunit SecA (Escherichia coli (strain K12))"
endpoint_label = "Percent Effect"
endpoint_value = "-0.936%"

[[record]]
compound = "CS(=O)(=O)c1ccc(CNC(=O)N2CCC(c3ccccc3)CC2)cc1"
measured_on = "Protein translocase subunit SecA (Escherichia coli (strain K12))"
endpoint_label = "Percent Effect"
endpoint_value = "-1.75%"

[[record]]
compound = "O=C(NC1CCCC1)NC1CCC(C(=O)N2CCSCC2)CC1 (stereo not given)"
measured_on = "Protein translocase subunit SecA (Escherichia coli (strain K12))"
endpoint_label = "Percent Effect"
endpoint_value = "-4.05%"

[[record]]
compound = "O=C(CCN1CCCC1C1CCCCC1)N1CCc2sccc2C1 (stereo not given)"
measured_on = "Protein translocase subunit SecA (Escherichia coli (strain K12))"
endpoint_label = "Percent Effect"
endpoint_value = "-3.42%"

[[record]]
compound = "O=C(Cc1cccc(F)c1)NCCNCc1ccc2c(c1)CCO2"
measured_on = "Protein translocase subunit SecA (Escherichia coli (strain K12))"
endpoint_label = "Percent Effect"
endpoint_value = "-4.03%"

[[record]]
compound = "CC(NC(=O)CSCC(=O)Nc1ccccc1)c1ccccc1 (stereo not given)"
measured_on = "Protein translocase subunit SecA (Escherichia coli (strain K12))"
endpoint_label = "Percent Effect"
endpoint_value = "-1.97%"

[[record]]
compound = "CC(C)c1cc2c(O)nc(CSCC(=O)O)nc2s1"
measured_on = "Protein translocase subunit SecA (Escherichia coli (strain K12))"
endpoint_label = "Percent Effect"
endpoint_value = "-4.64%"

[[record]]
compound = "CCCN(C)C(=O)c1ccc2c(c1)[nH]c(=O)n2CCOCC"
measured_on = "Protein translocase subunit SecA (Escherichia coli (strain K12))"
endpoint_label = "Percent Effect"
endpoint_value = "-5.32%"

[[record]]
compound = "CN1C(=O)CC(c2cnn(C)c2)C12CCN(C(=O)C1CC=CC1)CC2 (stereo not given)"
measured_on = "Protein translocase subunit SecA (Escherichia coli (strain K12))"
endpoint_label = "Percent Effect"
endpoint_value = "-3.3%"

